Measured T/C accompanies every entry in the list below.
- Tested on: P388 leukemia ip, CD2F1 mice, survival T/C
- experimentalProtocol: NCI In Vivo Anticancer Drug Screen. Data for tumor model P388 Leukemia (intraperitoneal) in CD2F1 (CDF1) mice
- testSettings: endpoint: median survival time; dose: 50.0 mg/kg/injection; schedule: Q01DX009 (ip); vehicle: saline; higher = longer survival
Inconclusive results and toxic doses are left out. Square brackets hold non-standard residues; d marks the D form. Peptide text beside a SMILES is read from it. Ac5c = NC1(C(=O)O)CCCC1; Sar = CNCC(=O)O

Respond only with T/C recorded for "N#C/C(=C\c1cccs1)C(N)=S" 100 % of control

Respond only with T/C recorded for "CCN(C/C=C/CN(CC)C(=S)Nc1ccccc1)C(=S)Nc1ccccc1" 106 % of control

Respond only with T/C recorded for CNCC(=O)NC1(C(=O)O)CCCC1 (H-[Sar]-[Ac5c]-OH) 100 % of control

Next:
Respond only with T/C recorded for C=C1CC2C3CC=C4CC(OC(C)=O)CCC4(C)C3CCC2(C)C1=O (stereo unspecified) 104 % of control

Respond only with T/C recorded for CC(N=c1ccccn1O)C(O)c1ccccc1 (stereo unspecified) 101 % of control

Respond only with T/C recorded for "ClCc1nnn(Cc2ccccc2)c1CCl" 102 % of control
